protocol.details: yeast display, Sf9 membrane polyspecificity reagent, FACS + sequencing; frameworks hold sequencing errors
measured.parameter: polyreactivity (PSR sort gate)

Sample answers from the record:
Please give the measured polyreactivity (PSR sort gate) for this sequence: QVQLVESGGGLVQAGGSLRLSCAASGFIFRYNAMGWYRQAPGKERELVAAISSSGGSTYYADSVKGRFTISRDNAKNTVYVQMNSLKPEDTAVDYCNAYNYGYIGYGYNYWGQGTQVTVSS
high polyreactivity

Let us now turn to QVQLVESGGGLVQAGGSLRLSCAASGFIIRTYAMGWYRQAPGKERELVAAITGRGGTTYYADSVKGRFTISRDNAKNTVDLQMNSLKPEDTAVYYCAARSRDYNYNPYDYWGQGTQVTVSS
high polyreactivity

What do you have for QVQLVESGGGLVQAGGSLRLSCAASGSTFTFYAMGWYRQAPGKERELVATISSSGGSTYYADSVKGRFTFSRDNAKKTVYLQMNSLKPEDTAVYYCAADPSIVDGEYGYWGQGTQVTVSS ?
low polyreactivity

Same question, QVQLVDSAGGLVQAGGSLRLSCAASGSIINSNAMGWYRQAPGKERELVAAINWRGGSTYYADSVKGRFTISRDNAKNTVYLQMNSLKPEDTAVYYCNALRRAPRAEYYYGGQGTQVTVSS this time
high polyreactivity

Lab note: next sequence to report on.
Value lookup for polyreactivity (PSR sort gate); key = QVQLVESGGGLVQAGGILRLSCAASGFIFYFYAMGWYRQAPGKERELVAAISWSGGSTYYADSVKGRFTISRDNAKINVYLQMNSLKAEDTAVYFCAADLYHKYDYWGQGTQVTVSS
low polyreactivity
